# TARGET ENTITY: UniProt:P35348
# Sequence (P35348 whole entry): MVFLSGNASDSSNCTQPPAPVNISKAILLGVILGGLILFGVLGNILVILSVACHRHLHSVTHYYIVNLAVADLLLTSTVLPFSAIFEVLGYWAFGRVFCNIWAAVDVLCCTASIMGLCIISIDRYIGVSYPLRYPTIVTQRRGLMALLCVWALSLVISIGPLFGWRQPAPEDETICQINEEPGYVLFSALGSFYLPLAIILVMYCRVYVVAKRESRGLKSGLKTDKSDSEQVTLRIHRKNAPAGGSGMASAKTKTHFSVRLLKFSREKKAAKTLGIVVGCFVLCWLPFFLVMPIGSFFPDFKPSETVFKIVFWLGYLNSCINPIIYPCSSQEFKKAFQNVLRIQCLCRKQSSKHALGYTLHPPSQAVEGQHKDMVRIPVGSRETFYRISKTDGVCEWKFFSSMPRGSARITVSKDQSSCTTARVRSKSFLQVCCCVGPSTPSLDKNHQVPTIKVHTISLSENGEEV
Kindly state Ki for each of the entries shown.
Hi! Could you send only the number? It should be in nM, unit omitted.

Fill in the recorded Ki for this compound, with UniProt:P35348 as test system: COC(=O)C1=C(C)NC(C)=C(C(=O)NCCCN2CCC(c3ccccc3)(c3ccccc3)CC2)C1c1ccc(C)cc1 (racemic) 1.38

Further, for COC(=O)C1=C(C)NC(C)=C(C(=O)NCCCN2CCC(C(=O)OC)(c3ccccc3)CC2)C1c1ccc([N+](=O)[O-])cc1 (centres undefined) ? 3.55

Further, for COC(=O)C1(c2ccccc2)CCN(CCCNC(=O)C2=C(C)NC(C)=C(C(=O)OCCO)C2c2ccc([N+](=O)[O-])cc2)CC1 (centres undefined) ? 3.63

Further, for COC(=O)C1=C(C)NC(C)=C(C(=O)NCCCCN2CCC(c3ccccc3)(c3ccccc3)CC2)C1c1ccc([N+](=O)[O-])cc1 (racemic) ? 14.8
